- STUDY SYSTEM: MAP3K3 (human) (UniProt Q99759)
- Sequence (Q99759 whole entry, looked up): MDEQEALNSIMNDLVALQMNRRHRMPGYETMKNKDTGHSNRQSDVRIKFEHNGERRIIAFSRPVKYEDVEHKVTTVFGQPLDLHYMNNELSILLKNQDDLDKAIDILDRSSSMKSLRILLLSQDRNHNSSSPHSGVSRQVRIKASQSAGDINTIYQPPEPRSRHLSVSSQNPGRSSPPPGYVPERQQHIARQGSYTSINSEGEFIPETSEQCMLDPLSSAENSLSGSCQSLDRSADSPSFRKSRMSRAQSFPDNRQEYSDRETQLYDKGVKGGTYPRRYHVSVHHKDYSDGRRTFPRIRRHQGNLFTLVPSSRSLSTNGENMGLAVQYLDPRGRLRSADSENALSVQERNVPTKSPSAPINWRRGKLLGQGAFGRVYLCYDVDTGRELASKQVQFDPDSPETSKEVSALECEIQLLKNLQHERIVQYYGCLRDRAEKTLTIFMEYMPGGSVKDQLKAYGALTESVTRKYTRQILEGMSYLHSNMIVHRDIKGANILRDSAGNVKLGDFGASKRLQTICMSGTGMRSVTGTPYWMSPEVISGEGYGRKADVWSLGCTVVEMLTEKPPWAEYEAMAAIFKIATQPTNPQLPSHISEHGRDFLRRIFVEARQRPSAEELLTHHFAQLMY
- METHOD SUMMARY: radiometric filter-binding kinase assay, Kinase HotSpot
- ASSAY CONDITIONS: compound 0.5 µM; ATP 10 µM
MEASURED ENDPOINT: residual activity (%)
Return type: number; implicit unit %.

Summary for this molecule, "Cn1cnc2cc3c(Nc4cccc(Br)c4)ncnc3cc21" : residual activity is 109

Record O=C1Nc2ccccc2/C1=C1/Nc2ccccc2/C1=N\OCCC(O)CO (stereo not drawn) , field residual activity: 87.8

Entry "CN([C@@H](Cc1ccc(OS(=O)(=O)c2cccc3cnccc23)cc1)C(=O)N1CCN(c2ccccc2)CC1)S(=O)(=O)c1cccc2cnccc12" ; residual activity = 96.4

Entry under test: "O=C(CCCc1ccc(-c2ccccc2F)cc1)Nc1ccc(O)cc1" . Its residual activity was 108

For record "Nc1nccc(-c2c(-c3ccc(F)cc3)ncn2C2CCNCC2)n1" the listed residual activity is 101

The molecule listed as "CC(=O)O/N=C1\C(=C2\C(=O)Nc3cc(Br)ccc32)Nc2ccccc21" shows residual activity equal to 97.4

Just so you know, measured residual activity for "Cn1nc2c3c(cccc31)C(=O)c1ccccc1-2" came out at 94.4

residual activity reported for this molecule "CN(C)C[C@H]1CCn2c(c(C3=C(c4cn(C)c5ccccc45)C(=O)NC3=O)c3ccccc32)C1" : 86.1

Quick note, residual activity for "Cc1nc2cc3nc(-c4cccs4)cnc3cc2n1C" landed at 117

Given item "O=C(O)/C=C/c1cc(Br)c(Br)c(Br)c1Br" , the value recorded as its residual activity is 105

Record summary for "CCn1cnc2c(Nc3cccc(Cl)c3)nc(N[C@@H]3CCCC[C@@H]3N)nc21" : reported residual activity = 103

Reported residual activity ( "Cn1sc(=O)n(Cc2ccccc2)c1=O" ) = 94.2

Kindly note the recorded residual activity for "O=C1Cc2c([nH]c3ccc(Br)cc23)-c2ccccc2N1" , which is 93.2

"Nc1nnc2[nH]c3ccccc3nc1-2" yielded residual activity of 103

residual activity reading for "Oc1ccc(Nc2nc(-c3ccc(Cl)cc3)cs2)cc1" : 101

Looking up "O=C1NC(=O)/C(=C\c2ccc3nccnc3c2)S1" , I found its residual activity recorded as 100

Value of measured residual activity for the entry "COc1cc2ncnc(N3CCN(C(=O)Nc4ccc(Oc5ccccc5)cc4)CC3)c2cc1OC" : 83.7

Value of measured residual activity for the entry "CC(C)[C@H](CO)Nc1nc(Nc2cc(N)cc(Cl)c2)c2ncn(C(C)C)c2n1" : 100

The recorded residual activity for "COc1cc2ncc(-c3ccccc3)nc2cc1OC" is 90.3

# molecule "COc1ccc(OC)c2c(=S)c3ccccc3[nH]c12" ; its residual activity = 117

Lookup result for "CCN(CC)CCCCN1c2ccccc2Oc2ccc(Cl)cc21" ; measured residual activity: 103

Summary for this molecule, "COc1ccc(CNC(=O)Nc2ncc([N+](=O)[O-])s2)cc1" : residual activity is 87.6

Lab note: measured residual activity of "O=C(Nc1cccc(Nc2cc(Nc3cccc(C(F)(F)F)c3)ncn2)c1)C1CC1" was 95.2

----------
Can you tell me residual activity for the items I'm about to list?
- STUDY SYSTEM: VRK1 (human) (UniProt Q99986)
- Sequence (Q99986 whole entry, looked up): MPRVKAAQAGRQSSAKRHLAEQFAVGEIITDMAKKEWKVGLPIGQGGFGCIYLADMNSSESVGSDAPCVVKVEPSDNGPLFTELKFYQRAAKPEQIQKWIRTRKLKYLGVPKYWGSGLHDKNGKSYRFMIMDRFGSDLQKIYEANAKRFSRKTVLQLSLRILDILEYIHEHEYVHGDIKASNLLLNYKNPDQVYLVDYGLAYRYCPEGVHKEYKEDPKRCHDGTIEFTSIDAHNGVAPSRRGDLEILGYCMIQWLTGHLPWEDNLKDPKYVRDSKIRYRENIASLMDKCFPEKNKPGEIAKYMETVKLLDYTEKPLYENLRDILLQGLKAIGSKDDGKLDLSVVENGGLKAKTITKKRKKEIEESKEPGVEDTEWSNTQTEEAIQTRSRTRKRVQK
- METHOD SUMMARY: radiometric filter-binding kinase assay, Kinase HotSpot
- ASSAY CONDITIONS: compound 0.5 µM; ATP 10 µM
Please state the figure in %; there is no need to write the unit.

The value of residual activity measured for the compound "O=C1NC(=O)C(c2cn(CCCO)c3ncccc23)=C1c1cnccn1" turned out to be 86.4

The reported residual activity of the compound "CC(C)[C@H](CO)Nc1nc(Nc2cc(N)cc(Cl)c2)c2ncn(C(C)C)c2n1" was 85.8

residual activity measured on "COc1cc2ncc(-c3ccccc3)nc2cc1OC" = 106

Measured residual activity of "COc1ccc(CNC(=O)Nc2ncc([N+](=O)[O-])s2)cc1" : 95

So, "O=C(CCCc1ccc(-c2ccccc2F)cc1)Nc1ccc(O)cc1" ? Its residual activity was 95.5

Form field residual activity, entry "Cn1nc2c3c(cccc31)C(=O)c1ccccc1-2" : 84.1

Record "O=C(Nc1cccc(Nc2cc(Nc3cccc(C(F)(F)F)c3)ncn2)c1)C1CC1" . Reported residual activity: 94

Recorded result, "CC(C)c1nn(-c2c(Cl)cccc2Cl)c2nc(Cc3ccc(OCCO)cc3)nc(O)c12" , residual activity: 103

Recorded result, "Cn1cnc2cc3c(Nc4cccc(Br)c4)ncnc3cc21" , residual activity: 100

Per the record, "CN(C)C[C@H]1CCn2c(c(C3=C(c4cn(C)c5ccccc45)C(=O)NC3=O)c3ccccc32)C1" has residual activity of 105

Briefly, residual activity measured for "Cn1sc(=O)n(Cc2ccccc2)c1=O" : 94.2
